B1: TRIM55 (parent)
chain: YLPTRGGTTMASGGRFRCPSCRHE

Variants of: B1
Assay: protein stability index of a GFP-peptide fusion (GPS, HEK-293T) (PSI 1-6); higher = more stable;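 note: lentivirally expressed fusions sorted by FACS into six bins by GFP to DsRed ratio, PSI derived from sequencing read proportions per bin multiplied by bin number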
Details: c terminus: a fixed tail appended
Reported Property: protein stability index
Reply with just the number.

Data request, read-out protein stability index, for M10Q
2.03

Returns the measured protein stability index for the input variant. Input: H23V
2

Look up protein stability index: G13K
1.38

Recorded protein stability index of S20P , please.
2.39

Would you kindly share the measured protein stability index for S20Y ?
1.46

# get_value(readout='protein stability index', item= M10T )
4.08

For the variant shown here, L2T , give the reported protein stability index.
1.38

// protein stability index lookup, key: E24C
2.07

Which protein stability index value is on record for T4Y ?
1.24

Would you mind telling me what protein stability index value was observed for T4L ?
2.73

Looking for the measured protein stability index of C18S , can you help?
3.61

Query: protein stability index; subject: R22N
2.4

What measured protein stability index goes with M10W ?
2.58

Query (variant): T9E ; field requested: protein stability index
2.66

Consider the variant F16K and give its measured protein stability index.
2.01

Fill blank: measured protein stability index of the variant P19I is ____.
1.38

Would you kindly share the measured protein stability index for F16C ?
3.06

For E24T , what is its reported protein stability index?
1.78

So what does the record say about protein stability index for T9Q ?
1.11

Item R15F has what recorded protein stability index?
2.76

For the variant shown here, P19Q , give the reported protein stability index.
3.5

Query (variant): R5A ; field requested: protein stability index
1.87
